Let's look at some binders and their measured optical density.
assay target: T1, Human ACVR2A (human, UniProt P27037 20-135, limits assumed); also: test concentration or dose not given here
T1 construct: also called activin receptor, type II A
T1 sequence (P27037 20-135 limits assumed): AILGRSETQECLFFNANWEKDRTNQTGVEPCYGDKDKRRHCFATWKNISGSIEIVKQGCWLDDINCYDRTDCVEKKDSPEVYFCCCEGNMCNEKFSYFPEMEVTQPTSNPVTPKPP
assay: ELISA
Answer in OD, number only, no unit symbol.

Q: So what's the measured optical density for this one? 371_F08 (antibody, V domains shown) VH: EVQLLESGGGLVQPGGSLRLSCAASGFTFDDYSMNWVRQAPGKGLEWVSGINYNGGYTGYADSVKGRFTISRDNSKNTLYLQMNSLRAEDTAVYYCARSANWHDTALDYWGQGTLVTVSS VL: DIQMTQSPSSLSASVGDRVTITCRASQSIVSYVNWYQQKPGKAPKLVIYAATSRHSGVPSRFSGSGSGTDFTLTISSLQPEDFATYYCQQSYESPLTFGGGTKVEIK
Result: 2.2

Q: Ok, now 369_A02 (antibody, V domains shown) VH: EVQLLESGGGLVQPGGSLRLSCAASGFTFSSYSMNWVRQAPGKGLEWVAGINYNSGYTGYADSVKGRFTISRDNSKNTLYLQMNSLRAEDTAVYYCARSANWHDTHLDYWGQGTLVTVSS VL: DIQMTQSPSSLSASVGDRVTITCRASQSILSYVNWYQQKPGKAPKLLIYAATSRASGVPSRFSGSGSGTDFTLTISSLQPEDFATYYCQQSYDLPLTFGGGTKVEIK
Result: 3.15

Q: Next up: 370_F07 (antibody, V domains shown) VH: EVQLLESGGGLVQPGGSLRLSCAASGFTFDSYSMNWVRQAPGKGLEWVSNINYNGGYKGYADSVKGRFTISRDNSKNTLYLQMNSLRAEDTAVYYCARSANWHDTALDYWGQGTLVTVSS VL: DIQMTQSPSSLSASVGDRVTITCRASQSILSYLNWYQQKPGKAPKLLIYAATSRASGVPSRFSGSGSGTDFTLTISSLQPEDFATYYCQQSYNLPLTFGGGTKVEIK
Result: 3.45

Q: # iterate: 371_C03 (antibody, V domains shown) VH: EVQLLESGGGLVQPGGSLRLSCAASGFTFSSYSMNWVRQAPGKGLEWVSNINYNGGYKGYADSVKGRFTISRDNSKNTLYLQMNSLRAEDTAVYYCARSANWHDTALDYWGQGTLVTVSS VL: DIQMTQSPSSLSASVGDRVTITCRASQSILSYLNWYQQKPGKAPKLVIYATTSRASGVPSRFSGSGSGTDFTLTISSLQPEDFATYYCQQSYSTPLTFGGGTKVEIK
Result: 3.01

Q: Now this one: 370_H01 (antibody, V domains shown) VH: EVQLLESGGGLVQPGGSLRLSCAASGFTFSSYSMNWVRQAPGKGLEWVSGINYNSGYKGYADSVKGRFTISRDNSKNTLYLQMNSLRAEDTAVYYCARSANWHDTALDYWGQGTLVTVSS VL: DIQMTQSPSSLSASVGDRVTITCRASQSIISYLNWYQQKPGKAPKLLIYAVTSRASGVPSRFSGSGSGTDFTLTISSLQPEDFATYYCQQSYDTPLTFGGGTKVEIK
Result: 3.31

Q: What do you get for 373_G10 (antibody, V domains shown) VH: EVQLLESGGGLVQPGGSLRLSCAASGFTFSDYGMNWVRQAPGKGLEWVSNINYNGGYKSYADSVKGRFTISRDNSKNTLYLQMNSLRAEDTAVYYCARSANWHDTALDYWGQGTLVTVSS VL: DIQMTQSPSSLSASVGDRVTITCRASQSIVSYVNWYQQKPGKAPKLLIYAATSRASGVPSRFSGSGSGTDFTLTISSLQPEDFATYYCQQSYDLPLTFGGGTKVEIK ?
Result: 3.54

Others:
Q: Bench note: what optical density did 369_A03 (antibody, V domains shown) VH: EVQLLESGGGLVQPGGSLRLSCAASGFTFSSYGMNWVRQAPGKGLEWVSNINYNGGYTGYADSVKGRFTISRDNSKNTLYLQMNSLRAEDTAVYYCARSANWHDTALDYWGQGTLVTVSS VL: DIQMTQSPSSLSASVGDRVTITCRASQSILTYLNWYQQKPGKAPKLLIYAVTSRHSGVPSRFSGSGSGTDFTLTISSLQPEDFATYYCQQGYDLPLTFGGGTKVEIK show?
Result: 0.451

Q: Could you do the same for 370_G02 (antibody, V domains shown) VH: EVQLLESGGGLVQPGGSLRLSCAASGFTFSDYSMNWVRQAPGKGLEWVANINYNGGYKGYADSVKGRFTISRDNSKNTLYLQMNSLRAEDTAVYYCARSANWHDTALDYWGQGTLVTVSS VL: DIQMTQSPSSLSASVGDRVTITCRASQSIVSYLNWYQQKPGKAPKLLIYAATSRHSGVPSRFSGSGSGTDFTLTISSLQPEDFATYYCQQSYDSPLTFGGGTKVEIK , please?
Result: 2.98

Q: Queued: 370_D04 (antibody, V domains shown) VH: EVQLLESGGGLVQPGGSLRLSCAASGFTFDSYSMNWVRQAPGKGLEWVANINYNSGYKGYADSVKGRFTISRDNSKNTLYLQMNSLRAEDTAVYYCARSANWHDTALDYWGQGTLVTVSS VL: DIQMTQSPSSLSASVGDRVTITCRASQSILTYLNWYQQKPGKAPKLVIYAATSRASGVPSRFSGSGSGTDFTLTISSLQPEDFATYYCQQSYDNPLTFGGGTKVEIK
Result: 3.59

Q: Here is the next binder: 369_G12 (antibody, V domains shown) VH: EVQLLESGGGLVQPGGSLRLSCAASGFTFSSYSMNWVRQAPGKGLEWVANINYNGGYTGYADSVKGRFTISRDNSKNTLYLQMNSLRAEDTAVYYCARSANWHDTALDYWGQGTLVTVSS VL: DIQMTQSPSSLSASVGDRVTITCRASQSILTYVNWYQQKPGKAPKLVIYAATSRHSGVPSRFSGSGSGTDFTLTISSLQPEDFATYYCQQSDNTPLTFGGGTKVEIK
Result: 1.77

Reference source for all entries: patent US20210380703A1
